Assay info: Binding affinity towards AVP receptor
Measurement label: Ki (pM)
Note: unit pM is implicit; provide only the numeric part.

The reported Ki of the molecule Cc1ccccc1C(=O)Nc1ccc(C(=O)N2CCCC(O)c3cc(Cl)ccc32)c(C)c1 (stereo unspecified) was 790

----------
Measurement label: IC50 (µM)
Note: unit µM is implicit; provide only the numeric part.

Measured IC50 (Vasopressin V1a receptor (Rattus norvegicus)), entry `Cc1ccccc1OCC(=O)Nc1ccc(C(=O)N2CCCCc3cc(Cl)ccc32)c(C)c1` : 5.1

----------
Study target: Vasopressin V2 receptor (Homo sapiens, UniProt P30518)
Sequence (P30518 whole entry): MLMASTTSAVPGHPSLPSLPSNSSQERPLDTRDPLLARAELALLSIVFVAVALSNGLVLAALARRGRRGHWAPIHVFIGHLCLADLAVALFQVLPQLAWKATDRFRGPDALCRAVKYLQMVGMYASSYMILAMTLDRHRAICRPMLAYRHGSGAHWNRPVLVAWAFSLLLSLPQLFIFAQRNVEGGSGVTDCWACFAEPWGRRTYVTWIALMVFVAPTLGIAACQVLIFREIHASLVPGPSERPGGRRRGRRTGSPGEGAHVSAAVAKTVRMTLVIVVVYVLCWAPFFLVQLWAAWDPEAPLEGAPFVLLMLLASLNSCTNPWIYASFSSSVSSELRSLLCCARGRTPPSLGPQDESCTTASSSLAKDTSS
Assay info: Inhibition of [3H]AVP binding to human Vasopressin V2 receptor expressed in HeLa cells
Type: cell-based
Kindly state IC50 for each of the entries shown.
Express your answer as a number followed by its unit.

The reported IC50 of the compound `CCN(CC)c1ccc(C(=O)N2CCCCc3ccccc32)c(Cl)c1` was 19 nM

The reported IC50 of the compound `O=C(c1ccc(N2CCCC2)cc1Cl)N1CCCCc2cc(Cl)ccc21` was 16 nM

The reported IC50 of the compound `CN(C)c1ccc(C(=O)N2CCCCc3cc(Cl)ccc32)c(Cl)c1` was 13 nM

The reported IC50 of the compound `O=C(c1ccc(-n2cccc2)cc1)N1CCCCc2ccccc21` was 320 nM

The reported IC50 of the compound `CNc1ccc(C(=O)N2CCCCc3ccccc32)c(Cl)c1` was 35 nM

The reported IC50 of the compound `O=C(c1ccc(N2CCCC2)cc1Cl)N1CCCCc2ccccc21` was 9 nM

The reported IC50 of the compound `Cc1ccn(-c2ccc(C(=O)N3CCCCc4ccccc43)c(Cl)c2)n1` was 13 nM
